- Experimental target: T1, yeast β'-COP 1-304 R15A K17A R59A (yeast (S. cerevisiae), UniProt P41811 1-304, R15A | K17A | R59A)
- T1 construct: constructs are in the Supplemental Experimental Procedures; also called β'-COP R15A K17A R59A mutant
- T1 sequence (looked up): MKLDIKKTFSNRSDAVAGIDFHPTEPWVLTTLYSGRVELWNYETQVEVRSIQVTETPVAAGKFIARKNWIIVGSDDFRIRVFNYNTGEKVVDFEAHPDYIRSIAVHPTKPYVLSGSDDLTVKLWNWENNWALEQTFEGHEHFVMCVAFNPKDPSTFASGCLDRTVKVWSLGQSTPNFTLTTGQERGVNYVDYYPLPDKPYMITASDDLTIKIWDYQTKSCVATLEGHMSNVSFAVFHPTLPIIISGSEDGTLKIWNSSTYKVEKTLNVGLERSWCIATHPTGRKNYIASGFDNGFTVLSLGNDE
- Assay comment: ITC; Microcal VP-ITC, 10°C; peptide in the syringe at ten times the molar concentration of the β'-COP construct in the cell; 50 mM HEPES (pH 7.4), 100 mM NaCl
- Conditions used: both partners purified
Experimental readout: Kd

INSERT INTO assay_data (binder, experimental_readout, result) VALUES
  ('RQEIIKTKLL (also called KTKLL motif; source: peptide) [KxKxx motif peptide from wild-type yeast Emp47 (RQEIIKTKLL)]', 'Kd', '< 300 µM');
